# System: NIH3T3 cells overexpressing calpastatin
# testName: MTT cell viability, calpastatin overexpressing cells vs parental line
# Format: cell-based, mouse
# conditions: calpastatin high-expressing cells / parental cell line, 3 to 4 days
assayEndpoint: logarithmic value of ratio of IC40 values
Form: value (number only, do not type unit).

Recorded result, COc1ccc2c(c1)CC[C@@H]1[C@@H]2CC[C@]2(C)[C@@H](NCCCCCCN3C(=O)C=CC3=O)CC[C@@H]12 , logarithmic value of ratio of IC40 values: −0.313

Recorded result, O=[As]O [NaAsO2, sodium arsenite] , logarithmic value of ratio of IC40 values: 0

Recorded result, CC(C)(C)C(=O)Oc1ccc(S(=O)(=O)Nc2ccccc2C(=O)NCC(=O)O)cc1 , logarithmic value of ratio of IC40 values: −0.1

Now look at this entry.
Recorded result, C[C@@H]1O[C@@H](O[C@H]2C[C@@H](O)[C@]3(CO)[C@H]4[C@H](O)C[C@]5(C)[C@@H](C6=CC(=O)OC6)CC[C@]5(O)[C@@H]4CC[C@]3(O)C2)[C@H](O)[C@H](O)[C@H]1O , logarithmic value of ratio of IC40 values: −0.3

====

# Test system: NIH3T3 cells overexpressing PKCalpha-KN
# testName: MTT cell viability, PKCalpha-KN overexpressing cells vs parental line
# Assay type: cell-based, mouse
# conditions: PKCalpha-KN (first of two lines) high-expressing cells / parental cell line, 3 to 4 days
Non-standard residues stand in square brackets, D forms with d. Residues, ends and D or L forms follow the SMILES beside them. Nle = CCCC[C@H](N)C(=O)O
Entries annotated with measured logarithmic value of ratio of IC40 values
Form: value (number only, do not type unit).

Example results:
Field logarithmic value of ratio of IC40 values (system: NIH3T3 cells overexpressing PKCalpha-KN) for entry CO[C@H]1[C@@H](OC)C[C@H](C)[C@@H](OC)C2=CC(=O)C=C(NC(=O)/C(C)=C/C=C\[C@H](OC)[C@@H](OC(N)=O)/C(C)=C/[C@@H]1C)C2=O = 0.09

Field logarithmic value of ratio of IC40 values (system: NIH3T3 cells overexpressing PKCalpha-KN) for entry C=C1[C@@H](O)[C@@H]2O[C@]3(CC[C@H](/C=C/[C@@H](C)[C@@H]4CC(C)=C[C@@]5(O[C@H](C[C@@](C)(O)C(=O)O)CC[C@H]5O)O4)O3)CC[C@H]2O[C@@H]1[C@@H](O)C[C@H](C)[C@H]1O[C@@]2(CCCCO2)CC[C@H]1C = 0.09

Field logarithmic value of ratio of IC40 values (system: NIH3T3 cells overexpressing PKCalpha-KN) for entry CNc1ccc2oc(C[C@H]3O[C@@]4(CC[C@H]3C)O[C@H]([C@H](C)C(=O)c3ccc[nH]3)[C@H](C)C[C@H]4C)nc2c1C(=O)O = 0.22

Next:
Field logarithmic value of ratio of IC40 values (system: NIH3T3 cells overexpressing PKCalpha-KN) for entry CCCC[C@@H](C=O)NC(=O)[C@H](CC(C)C)NC(=O)[C@H](CC(C)C)NC(C)=O [ALLN] (Ac-Leu-Leu-[Nle]-aldehyde) = 0.11

Field logarithmic value of ratio of IC40 values (system: NIH3T3 cells overexpressing PKCalpha-KN) for entry C[C@@H]1O[C@@H](O[C@H]2C[C@@H](O)[C@]3(CO)[C@H]4[C@H](O)C[C@]5(C)[C@@H](C6=CC(=O)OC6)CC[C@]5(O)[C@@H]4CC[C@]3(O)C2)[C@H](O)[C@H](O)[C@H]1O = 0.00

Field logarithmic value of ratio of IC40 values (system: NIH3T3 cells overexpressing PKCalpha-KN) for entry C=C[C@@]1(C)CC(=O)[C@]2(O)[C@@]3(C)[C@@H](O)CCC(C)(C)[C@@H]3[C@H](O)[C@H](OC(C)=O)[C@@]2(C)O1 = −0.47
